tested on: human endothelin B receptor (Homo sapiens, UniProt P24530)
Sequence (P24530 27-442): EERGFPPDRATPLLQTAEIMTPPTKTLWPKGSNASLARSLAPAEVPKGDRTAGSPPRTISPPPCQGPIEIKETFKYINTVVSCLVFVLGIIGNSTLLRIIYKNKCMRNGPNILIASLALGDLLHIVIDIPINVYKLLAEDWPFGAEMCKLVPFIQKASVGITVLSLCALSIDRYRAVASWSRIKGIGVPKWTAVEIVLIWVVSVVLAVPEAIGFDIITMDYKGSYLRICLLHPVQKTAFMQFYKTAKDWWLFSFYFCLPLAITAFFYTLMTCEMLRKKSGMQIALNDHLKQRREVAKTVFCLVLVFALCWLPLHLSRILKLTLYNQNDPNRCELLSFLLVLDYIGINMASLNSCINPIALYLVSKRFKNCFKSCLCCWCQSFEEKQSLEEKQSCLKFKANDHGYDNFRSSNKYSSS
experiment: Endothelin B receptor inhibitory effect (aequorin light emission, endothelin at EC80)
run conditions: CHO-K1-mt aequorin cells expressing human endothelin B receptor; endothelin at EC80; read-out: ETB receptor inhibitory effect
pIC50: −log10 of the molar value.
readout type: pIC50

molecule	reported measurement
Cc1cc2c(cc1C#Cc1ncccc1S(=O)(=O)Nc1noc(C)c1C)C(C)OC2 (stereo not shown) [Example 2]	< 5.30
Cc1cc2c(cc1C#Cc1ncccc1S(=O)(=O)Nc1noc(C)c1C)C(C)(C)OC2 [Example 1]	< 5.30
Cc1cc2c(cc1CC(=O)c1sccc1S(=O)(=O)Nc1onc(C)c1Cl)COC2 [Comparative Example 2, reference compound]	< 5.30
Cc1cc2c(cc1CC(=O)c1sccc1S(=O)(=O)Nc1onc(C)c1Cl)OCO2 [Comparative Example 1, sitaxentan, reference compound]	< 5.30

----------
experiment: Metabolic stability in mouse liver microsome; further: tested at 0.99 µM
Assay type: in vitro ADME
run conditions: after 30 minutes with NADPH
readout type: Metabolic stability (mouse), residual rate of the unchanged form (%)

smiles entry	reported measurement
COc1nc(C)cnc1NS(=O)(=O)c1cccnc1C#Cc1cc2c(cc1C)COC2(C)C	68
Cc1cc2c(cc1C#Cc1ncccc1S(=O)(=O)Nc1onc(C)c1Cl)C(C)(C)OC2	5
Cc1cc2c(cc1C#Cc1ncccc1S(=O)(=O)Nc1onc(C)c1C)C(C)(C)OC2	40
Cc1cc2c(cc1C#Cc1ncccc1S(=O)(=O)Nc1noc(C)c1C)C(=O)OC2	91

----------
experiment: Metabolic stability in mouse liver microsome; further: tested at 0.99 µM
Type: in vitro ADME
run conditions: after 30 minutes with NADPH
We begin with a simple list: items and their reported Metabolic stability (mouse), residual rate of the unchanged form.
readout type: Metabolic stability (mouse), residual rate of the unchanged form (%)

compound	unit spec	reported measurement
Cc1cc2c(cc1C#Cc1ncccc1S(=O)(=O)Nc1noc(C)c1Cl)C(C)(C)OC2 [Example 7]	%	81
Cc1onc(NS(=O)(=O)c2cccnc2C#Cc2cc3c(cc2Cl)COC3)c1C [Example 6]	%	54
Cc1onc(NS(=O)(=O)c2cccnc2C#Cc2ccc3c(c2)COC3)c1C [Example 5]	%	90
Cc1cc2c(cc1C#Cc1ncccc1S(=O)(=O)Nc1noc(C)c1C)C(C)(C)OC2 [Example 1]	%	85
Cc1cc2c(cc1C#Cc1ncccc1S(=O)(=O)Nc1noc(C)c1C)COC2 [Example 3]	%	85

----------
Listed here: items and their measured IC50.
tested on: human endothelin A receptor (Homo sapiens)
Sequence (P25101 21-427): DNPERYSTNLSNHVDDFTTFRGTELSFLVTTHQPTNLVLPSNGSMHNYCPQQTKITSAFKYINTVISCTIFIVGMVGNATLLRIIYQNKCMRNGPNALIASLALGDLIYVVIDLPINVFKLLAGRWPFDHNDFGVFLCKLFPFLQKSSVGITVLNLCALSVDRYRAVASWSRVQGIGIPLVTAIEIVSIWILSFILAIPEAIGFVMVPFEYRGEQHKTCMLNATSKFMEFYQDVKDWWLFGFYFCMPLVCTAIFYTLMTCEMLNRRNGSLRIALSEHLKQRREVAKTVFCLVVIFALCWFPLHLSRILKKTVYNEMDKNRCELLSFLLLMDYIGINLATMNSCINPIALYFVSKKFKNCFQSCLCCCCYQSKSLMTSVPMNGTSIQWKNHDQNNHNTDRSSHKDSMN
experiment: Endothelin A receptor inhibitory effect (aequorin light emission, endothelin at EC80)
run conditions: CHO-K1-mt aequorin cells expressing human endothelin A receptor; endothelin at EC80; read-out: ETA receptor inhibitory effect
readout type: IC50

compound	reported measurement
Cc1onc(NS(=O)(=O)c2cccnc2C#Cc2ccc3c(c2)COC3)c1C	1 to 10 nM
Cc1cc2c(cc1C#Cc1ncccc1S(=O)(=O)Nc1noc(C)c1C)COC2C (stereo not shown)	1 to 10 nM
Cc1cc2c(cc1C#Cc1ncccc1S(=O)(=O)Nc1noc(C)c1C)COC2	≤ 1 nM
Cc1onc(NS(=O)(=O)c2cccnc2C#Cc2cc3c(cc2Cl)COC3)c1C	1 to 10 nM
Cc1cc2c(cc1C#Cc1ncccc1S(=O)(=O)Nc1noc(C)c1C)C(=O)OC2	≤ 1 nM
Cc1cc2c(cc1CC(=O)c1sccc1S(=O)(=O)Nc1onc(C)c1Cl)COC2 [Comparative Example 2, reference compound]	≤ 1 nM
Cc1cc2c(cc1C#Cc1ncccc1S(=O)(=O)Nc1onc(C)c1C)C(C)(C)OC2	≤ 1 nM
Cc1cc2c(cc1C#Cc1ncccc1S(=O)(=O)Nc1noc(C)c1C)C(C)(C)OC2	≤ 1 nM
COc1nc(C)cnc1NS(=O)(=O)c1cccnc1C#Cc1cc2c(cc1C)COC2(C)C	≤ 1 nM
Cc1cc2c(cc1C#Cc1ncccc1S(=O)(=O)Nc1noc(C)c1C)C(C)OC2 (stereo not shown)	≤ 1 nM
Cc1cc2c(cc1CC(=O)c1sccc1S(=O)(=O)Nc1onc(C)c1Cl)OCO2 [Comparative Example 1, sitaxentan, reference compound]	1 to 10 nM
Cc1cc2c(cc1C#Cc1ncccc1S(=O)(=O)Nc1onc(C)c1Cl)C(C)(C)OC2	≤ 1 nM
Cc1cc2c(cc1C#Cc1ncccc1S(=O)(=O)Nc1noc(C)c1Cl)C(C)(C)OC2	≤ 1 nM
